Data provenance: the supplement of paper PMC12042874

Assay: amyloid nucleation score (Sup35N fusion, yeast selection) (log enrichment); library NNK1; higher = more nucleation; inactive = no reads after selection;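 further: zero at mode of non-aggregating sequences after 7 days selection at 30°C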
Rule: Condition met for amyloid nucleation score not less than 0.2, Condition not met for anything less.

Form field: amyloid nucleation score at least 0.2? Entry: CIIVVSTRAADPDLCSYIML
Condition met

Check if amyloid nucleation score >= 0.2 (inclusive). Item: YCCDDDGKFAWNECWDDTAR
Condition not met

Threshold query (amyloid nucleation score >= 0.2) on ADPLMI
Condition not met

Is reported amyloid nucleation score greater than or equal to 0.2 here: VSPLWSCFTSGVPTDCWSLG
Condition met

Identify whether the reported amyloid nucleation score of the following substance is 0.2 or greater: PYSAQAFERRSHAIRGVSKN
Condition not met

Could you tell me if the measured amyloid nucleation score of YLASREDDINMDASLLSTHA reaches 0.2 or more?
Condition met

Quick check: does LINKNSSSAFCVMLGHYWVR have amyloid nucleation score greater than or equal to 0.2?
Condition not met

Textbook exercise: given the entry YLVTYVLSIRNCGIYIWIRR , state whether its amyloid nucleation score is greater than or equal to 0.2.
Condition met

Could you verify whether the entry GKSNLARHAPNLEVTMRGTE shows amyloid nucleation score of no less than 0.2?
Condition met

amyloid nucleation score >= 0.2 for TSMPDLGWAVSVAAQFYNFQ ?
Condition met

Threshold query (amyloid nucleation score >= 0.2) on YRRVKM
Condition not met

Exam item: decide whether the reported amyloid nucleation score for FGSSVSAVNFRVV is at least 0.2.
Condition not met

Test whether the substance VRSNRMTAGTGYWGNSTVKD records amyloid nucleation score of 0.2 or higher.
Condition not met

Assess whether reported amyloid nucleation score for PIVLWTIIPNTFKS sits at 0.2 or higher.
Condition met

Does FVIFSIELCGHRATSSSFNL have a reported amyloid nucleation score of at least 0.2?
Condition met

Is the recorded value of amyloid nucleation score equal to or greater than 0.2 for this substance? ISQYILSHLCQFIVSIGLAT
Condition not met

Check if amyloid nucleation score >= 0.2 (inclusive). Item: LVHMIAYAVGNLMCIRPLLI
Condition not met

====

I'd appreciate it if you could supply amyloid nucleation score values for the items below.
Test: amyloid nucleation score (Sup35N fusion, yeast selection) (log enrichment); library NNK1; higher = more nucleation; inactive = no reads after selection
Give a plain numeric answer without units written out.

Entry LEGKPSEFYRNFHIYGVVYQ needs its amyloid nucleation score filled in; supply it.
-0.531

Name the recorded amyloid nucleation score of the item TVVEVRGVEQRHGLNCTNPG in your answer.
-0.05

Please give measured amyloid nucleation score of the following entry: LQERWMAMGGGGQGVVWGFT
0.305

Respond only with amyloid nucleation score recorded for YVTFGWIYTSLVPYRLEVIL
0.243

Provide one value: measured amyloid nucleation score of LLKVQGF
1.13

For FINDYMIQYSLHLQVLMST , write its amyloid nucleation score.
3.95

Query amyloid nucleation score for YSFSRQVSMPSSYSFALF
-0.742

Complete the entry with amyloid nucleation score for NSHRNSWSYMRHYSQSLMC
0.227

Hello, please tell me recorded amyloid nucleation score for this one: FSNRWFC
-0.578

Note down amyloid nucleation score recorded for FVMLGWFSRNIGLYEVFVFT
0.502

Output measured amyloid nucleation score for this item: CRYPWRH
-0.042

Name the recorded amyloid nucleation score of the substance listed here: AFWFMCWGMTRTRYV
2.73

Identify measured amyloid nucleation score corresponding to IHESTWSVKGSWVHQRGPGP
2.56

Give recorded amyloid nucleation score. SYLMQSFDKLCAA
-0.033

Note down amyloid nucleation score recorded for SGKPYLLGCTFSSVTLCPQV
-0.227

Look up amyloid nucleation score of VYMRNKEQVNIGHDTVNLSL and report it.
0.58

Fill in reported amyloid nucleation score for this entry: NKYLDSKDWRAFCRSYFNLF
0.891

Read off the recorded amyloid nucleation score for SDASLLTKSVFADGRDQVTR
0.433

Specify amyloid nucleation score for HNWCRSSRRVVMSFMCKTKL and stop.
0.412

Respond only with amyloid nucleation score recorded for FPYGSVIVVFVDFWYRLSSV
-0.343

Determine its reported amyloid nucleation score: VWRLSI
-0.557

Output measured amyloid nucleation score for this item: ALWNYAVNSTLWWGLGYGWR
0.052

Return the recorded amyloid nucleation score value; entry: VFSVAGASCCRRIGSCWLLR
0.687

Tell us which amyloid nucleation score value is on record for FCSSSLFHKVTLG
-0.043

Identify the reported amyloid nucleation score for the following entry. HCPELLLPPSKCTIINGNDK
1.52

Supply recorded amyloid nucleation score for LFLWDVFGQLAFVRVGTICW here.
1.14

Input CRMTGSFKSTCRSKGLASCS , output reported amyloid nucleation score.
0.002

Answer with the recorded amyloid nucleation score for the substance listed here: CWQSGMCNRSRMQAVRVPHD
0.698

Complete the entry with amyloid nucleation score for NQNAGELNKFPWDRWKYLYV
-1.1

Given IVKGLSCKIDWLCASMHWMR , respond with its amyloid nucleation score.
0.053

State its amyloid nucleation score: GDANLGKQLWRGWNVG
0.228

Entry TILMASTSYFIPSLP needs its amyloid nucleation score filled in; supply it.
1.38

Give the measured amyloid nucleation score for LISRIS
0.303

Item FPFAYGVSESQSSVIHVLDV : provide amyloid nucleation score
-0.063

Report amyloid nucleation score for CYSQDRSRLVSEDYY
-0.525

Supply reported amyloid nucleation score belonging to this substance: LLWRVSPSTLTSAIFKCLHS
-0.741

Assign amyloid nucleation score to the following record: NVSVVSSHMLICMGMATRNP
1.92

Name the recorded amyloid nucleation score of the substance listed here: FFKNLCSRGCLCSYGMVQTV
0.396

Specify amyloid nucleation score for HFNFNFAQSRNEMLVASG and stop.
-1.16

Look up and state reported amyloid nucleation score for FRALKLEAIPAKVGAPYLVP
0.045

Tell me measured amyloid nucleation score for SMQQVSTSVQKVMDAYHWGW please.
0.554

Quickly give me recorded amyloid nucleation score for GDSWRSYLRILGTYMVRRWC
0.244

Please report amyloid nucleation score for the following substance: TEFSNAPPHTSAMVAYVLSY
-1.52

Consider the substance FLNLGSSDQSHYSCTKEWSH . State its measured amyloid nucleation score.
-0.157

Give me measured amyloid nucleation score, please, for this substance: KVLLIRWDLLC
0.291

Identify amyloid nucleation score associated with the substance TSRIFRCCCNCWSHA
1.31

Supply measured amyloid nucleation score of SQMTDYVFTL in your reply.
0.848

Consider the substance MDFDRCYSFRGMR and give its recorded amyloid nucleation score.
-0.13

Return reported amyloid nucleation score. Input substance: CICLDTSGSVLYSLCTDCGL
0.871

Input VCNCCLHVYIPSRAGNRPMR , output reported amyloid nucleation score.
8.25

Supply recorded amyloid nucleation score for ISMGWWIDYGPY here.
-0.724

Consider the substance LYRWCGPCYLIWGVSWS and give its recorded amyloid nucleation score.
-0.199

# return recorded amyloid nucleation score for entry YSYNYGWTVAEELYNRCIGA
0.266

Let me know recorded amyloid nucleation score for GGLGTPFFHAPSHMWVKW , thanks.
-0.551

Consider the substance WMLVRAACLGIKRKNG and give its recorded amyloid nucleation score.
0.759

Quickly give me recorded amyloid nucleation score for YIYEDFGG
-0.407

Read the entry WISHSVSLFVSVLGMWMSRD and write its reported amyloid nucleation score.
-2.09

Provide only the value of recorded amyloid nucleation score for FYQLYLINSTCHGRSRYILS
0.155

Identify measured amyloid nucleation score corresponding to SNFMGQD
0.733

# return recorded amyloid nucleation score for entry NIILSYLYFRTARVISEDRR
4.7

Give reported amyloid nucleation score value for RLSLETIVASFIYCCCAKFA
1.66

// fetch amyloid nucleation score given entry LAWMWYQGVSLRNKGGGMFY
-0.659

Answer with the recorded amyloid nucleation score for the substance listed here: LLWTGY
2.43

Quick one: give measured amyloid nucleation score for RLMNFE
-0.257
